Data origin, for the record: patent US20030096854A1

target: recombinant human secreted phospholipase A2 (Homo sapiens, UniProt P14555); experiment: Chromogenic assay for inhibitors of recombinant human secreted phospholipase A2 (Assay Example 1); assay type: biochemical; conditions: compounds of formula 4; diheptanoyl thio-PC substrate, pH 7.5, absorbance at 405 nm
Sequence (P14555 21-144): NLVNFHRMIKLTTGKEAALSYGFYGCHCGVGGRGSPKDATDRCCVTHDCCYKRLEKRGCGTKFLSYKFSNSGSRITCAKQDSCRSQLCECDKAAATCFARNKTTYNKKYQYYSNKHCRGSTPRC
Measurement name: IC50 (nM)
Give bare numbers, in nM.

structure_as_smiles=NC(=O)c1cccc2c1c1c(OCC(=O)N[C@@H](CC(=O)O)C(=O)O)cccc1n2Cc1ccccc1 test_value=99.2

Working through the 5 compounds below one at a time, give IC50 for each.
1. NC(=O)c1cccc2c1c1c(OCC(=O)NCC(=O)O)cccc1n2Cc1ccccc1
2. CSCC[C@H](NC(=O)COc1cccc2c1c1c(C(N)=O)cccc1n2Cc1ccccc1)C(=O)O
3. CC(C)C[C@H](NC(=O)COc1cccc2c1c1c(C(N)=O)cccc1n2Cc1ccccc1)C(=O)O
4. NC(=O)c1cccc2c1c1c(OCC(=O)N[C@@H](CCC(=O)O)C(=O)O)cccc1n2Cc1ccccc1
5. NC(=O)c1cccc2c1c1c(OCC(=O)N[C@@H](Cc3ccccc3)C(=O)O)cccc1n2Cc1ccccc1

Solution:
1: 118; 2: 103; 3: 16.1; 4: 61.2; 5: 324
